pKd: −log10 of the molar value.
For reference, pKd measured on Met (Homo sapiens):

{"columns": ["compound", "pKd"],
 "data": [
  ["CCOc1cn(-c2ccc(Cl)cc2C)nc1C(=O)Nc1ccc(Oc2ccnc3cc(OC)c(OC)cc23)cn1", "> 7.00"],
  ["CCOc1cn(-c2cscn2)nc1C(=O)Nc1ccc(Oc2ccnc3cc(OC)c(OC)cc23)cn1", "> 7.00"],
  ["CCOc1cn(CCOC(F)F)nc1C(=O)Nc1ccc(Oc2ccnc3cc(OC)c(OC)cc23)cn1", "> 7.00"],
  ["CCOc1cn(-c2ccc(Cl)c(C(=O)N(C)C)c2)nc1C(=O)Nc1ccc(Oc2ccnc3cc(OC)c(OC)cc23)cn1", "> 7.00"],
  ["CCOc1cn(-c2ccc(OC(F)(F)F)cc2Cl)nc1C(=O)Nc1ccc(Oc2ccnc3cc(OC)c(OC)cc23)c(F)c1", "> 7.00"],
  ["CCOc1cn(-c2cnc(N)cn2)nc1C(=O)Nc1ccc(Oc2ccnc3cc(OC)c(OC)cc23)cn1", "> 7.00"],
  ["COc1cc2nccc(Oc3ccc(NC(=O)c4nn(-c5cc(F)ccc5Cl)cc4OCC(F)(F)F)nc3)c2cc1OC", "> 7.00"],
  ["CCOc1cn(C2CCN(C)C2)nc1C(=O)Nc1ccc(Oc2ccnc3cc(OC)c(OC)cc23)cn1 (centres unmarked)", "6.00 to 7.00"]
]}

stdin: If you can, please state the reported pKd value of `CCOc1cn(-c2ccc(F)cc2C(F)(F)F)nc1C(=O)Nc1ccc(Oc2ccnc3cc(OC)c(OC)cc23)cn1` .
stdout: > 7.00

stdin: Please do the same for `CCOc1cnn(Cc2cnccc2C)c1C(=O)Nc1ccc(Oc2ccnc3cc(OC)c(OC)cc23)cc1F` as well.
stdout: 6.00 to 7.00

stdin: Please do the same for `CCOc1cn(-c2ncc(F)cc2C#N)nc1C(=O)Nc1ccc(Oc2ccnc3cc(OC)c(OC)cc23)cn1` as well.
stdout: > 7.00

stdin: Please do the same for `CCOc1cn(-c2ccc(F)cc2C)nc1C(=O)Nc1ccc(Oc2ccnc3cc(OC)c(OC)cc23)cc1C(F)(F)F` as well.
stdout: 6.00 to 7.00

stdin: Please do the same for `COCCOc1cnn(-c2cnc(N)nc2)c1C(=O)Nc1ccc(Oc2ccnc3cc(OC)c(OC)cc23)cn1` as well.
stdout: ≤ 6.00

stdin: Please do the same for `CCOc1cn(-c2ccsc2)nc1C(=O)Nc1ccc(Oc2ccnc3cc(OC)c(OC)cc23)cn1` as well.
stdout: 6.00 to 7.00

stdin: Please do the same for `CCOc1cn(CCN(C)C)nc1C(=O)Nc1ccc(Oc2ccnc3cc(OC)c(OC)cc23)cn1` as well.
stdout: 6.00 to 7.00

stdin: Please do the same for `CCOc1cn(-c2cccnc2)nc1C(=O)Nc1cnc(Oc2ccnc3cc(OC)c(OC)cc23)nc1` as well.
stdout: ≤ 6.00

Sourced from patent US10934274B2
